Origin of values: PubChem BioAssay (NCI)

System: SR leukemia
Assay: NCI-60 one-dose screen, 48 h (100 = growth as untreated, 0 = no growth, -100 = all killed)
Settings: 10 µM unless noted
This is part of a sample that, as a whole, favours compounds with a hit. Of some 83,000 tested, about 20% had one in any assay.

>  <compound>
CN1C(=O)c2cc(Cl)nc3c(NC(=O)c4cccc(Cl)c4)c(Cl)c(NC(=O)c4cccc(Cl)c4)c1c23

>  <growth / %>
-44.7

$$$$
>  <compound>
O=c1[nH]c(-c2cccc(F)c2)cc2cc(F)ccc12

>  <growth / %>
22.5

$$$$
>  <compound>
CN(C)C(CNc1oc(-c2cccc3ccccc23)nc1C#N)c1ccco1 (stereo not drawn)

>  <growth / %>
69.5

$$$$
>  <compound>
CSc1nc(-c2cccs2)c2c(N)[nH]nc2n1

>  <growth / %>
73.3

$$$$
>  <compound>
Cc1cc(Nc2nc(SCc3ccc(C(=O)Nc4ccc(F)cc4N)cc3)nn3cccc23)n[nH]1

>  <growth / %>
13.3

$$$$
>  <compound>
Cn1c2c(c3ccc(-c4ccn[nH]4)cc3c1=O)C(=O)c1ccccc1-2

>  <growth / %>
1.32

$$$$
>  <compound>
CC(C)C[C@H](C(=O)O)N(C)C(=O)[C@@H]1CCCN1C(=O)[C@H](C)OC(=O)[C@H](CCC(N)=O)NC(=O)[C@@H]1CCC(=O)N1

>  <growth / %>
94.4

$$$$
>  <compound>
CC1CCN(CCCCCOc2ccc3oc4ccccc4c(=O)c3c2)CC1

>  <growth / %>
47.5

$$$$
>  <compound>
COc1ccc(-c2nnc(N3CCN(C(=O)CN4CCN(c5ccc(OC)cc5)CC4)CC3)nc2-c2ccc(OC)cc2)cc1

>  <growth / %>
-54.2

$$$$
>  <compound>
CO[C@@]12C=C[C@@]34CCC(=O)N3c3ccccc3[C@@H](O1)C4C2

>  <growth / %>
96.9

$$$$
>  <compound>
O=c1nc(-c2ccccc2)c2cc(-c3ccc(N4CCCC4)nc3)ccc2[nH]1

>  <growth / %>
18.2

$$$$
>  <compound>
COc1ccc(C2CC(c3ccc(OC)cc3O)=NN2c2ccc(S(N)(=O)=O)cc2)cc1 (stereo not drawn)

>  <growth / %>
8.1

$$$$
>  <compound>
NC(=O)c1ccc(C2C3=C(CCCC3=O)OC3=C2C(=O)c2ccccc2C3=O)cc1 (stereo not drawn)

>  <growth / %>
8.38

$$$$
>  <compound>
Nc1cc(N)c(S(=O)(=O)O)cc1N=Nc1cc([N+](=O)[O-])ccc1O

>  <growth / %>
90.3

$$$$
>  <compound>
O=C1CC23OC(C(O)c4ccccc4N12)C1C(c2ccccc2)=NOC13 (stereo not drawn)

>  <growth / %>
22.2

$$$$
>  <compound>
O=C1Nc2ccc(Cl)cc2/C1=N/c1nc(-c2ccc(Cl)cc2)cs1

>  <growth / %>
3.05

$$$$
>  <compound>
O=C1CCC23OC(C(O)c4ccccc4N12)C1C(Br)=NOC13 (stereo not drawn)

>  <growth / %>
102

$$$$
>  <compound>
COc1ccc(Cc2nc(C#N)c(N3CCN(c4ccc(F)cc4)CC3)o2)cc1

>  <growth / %>
88.9

$$$$
>  <compound>
C#CC[C@@H]1C[C@]2(C)[C@H]3CC[C@@H]4[C@H]5[C@H](C(=C)C)CC[C@]5(C(=O)O)CC[C@@]4(C)[C@]3(C)CC[C@H]2C(C)(C)[C@H]1O

>  <growth / %>
45.5

$$$$
>  <compound>
NCCN1CCNCC1

>  <growth / %>
99.7

$$$$
>  <compound>
CC1(C)[C@@H](O)CC[C@]2(C)[C@H]3CC[C@@H]4[C@H]5[C@H](c6cn(-c7ccccc7)nn6)CC[C@]5(CO)CC[C@@]4(C)[C@]3(C)CC[C@@H]12

>  <growth / %>
64.7

$$$$
>  <compound>
COc1ccc2nc(-c3ccc(Cl)cc3)cc(-c3nnc(SCC(=O)Nc4ccc(/C(C)=N\O)cc4)o3)c2c1

>  <growth / %>
6.61

$$$$
>  <compound>
Nc1c(C(=O)Nc2ccccc2)sc2nc3c(cc12)CN(C(=O)OCc1ccccc1)CC3

>  <growth / %>
25.1

$$$$
>  <compound>
S=c1ssnc1-c1cc2ccccc2o1

>  <growth / %>
41.6

$$$$
>  <compound>
C=CCn1c(SCC(=O)Nc2ccc(C(=O)/C=C/c3cc(OC)c(OC)c(OC)c3)cc2)nnc1-c1ccc(Cl)cc1

>  <growth / %>
3.83

$$$$
>  <compound>
CC(=O)Nc1ccc2c(c1)Cc1cc(F)ccc1-2

>  <growth / %>
87.5

$$$$
>  <compound>
Cc1c(Cl)cccc1NC(=O)c1sc2nc3c(cc2c1N)CCCCCC3

>  <growth / %>
16

$$$$
>  <compound>
C=C(C)[C@@H]1CC[C@]2(C(=O)N=C=S)CC[C@]3(C)[C@H](CC[C@@H]4[C@@]5(C)CCC(=O)C(C)(C)[C@@H]5CC[C@]43C)[C@@H]12

>  <growth / %>
27.6

$$$$
